- SYSTEM UNDER TEST: Replicase polyprotein 1ab (Severe acute respiratory syndrome coronavirus 2)
- PROCEDURE TEXT: Inhibition of SARS-CoV-2 Main protease extracted from Escherichia coli BL21 (DE3) cells measured for 60 mins by FRET based analysis
I'd appreciate it if you could supply IC50 values for the items below.
# unit: µM | format: bare number

QUERY: What does the record list as IC50 for Cc1ccc(NC(=O)NCCN)cc1C(=O)N[C@H](C)c1cccc2ccccc12 ?
RESULT: 1.1

QUERY: Now try Cc1ccc(NC(=O)C2CN(C(C)C)CCN2)cc1C(=O)N[C@H](C)c1cccc2ccccc12 (mixture of isomers) .
RESULT: 1.4

QUERY: Now try Cc1ccc(NC[C@@H](N)CNC[C@H]2CCCN2)cc1C(=O)N[C@H](C)c1cccc2ccccc12 .
RESULT: 1.1

QUERY: Now try Cc1ccc(NC[C@H]2CCCCN2C)cc1C(=O)N[C@H](C)c1cccc2ccccc12 .
RESULT: 1.5

QUERY: Now try Cc1ccc(NC(=O)CNCC2CC2)cc1C(=O)N[C@H](C)c1cccc2ccccc12 .
RESULT: 1.3

QUERY: Now try Cc1ccc(NCC2CNC2)cc1C(=O)N[C@H](C)c1cccc2ccccc12 .
RESULT: 1
